I'd appreciate it if you could supply IC50 values for the items below.
Target: HLA-A*6802 (human)
Test: competition with 125I probe peptide on purified HLA, gel filtration
Details: remark: other sources report otherwise
Kindly answer with a numeric value in µM, unit omitted.

# query: IC50 of entry KLRELSELSV [Peptide 63.0048 … (PAP.234.V10)]
1.82

# query: IC50 of entry GVSIWNPILV [Peptide 63.0041 … (PAP.128.V10)]
2.29

Values were extracted from patent US20040037843A1.
